Experiment: reduced calcium signal in Ga16 cells – fluorescence, CHO-Ga16 cells, counter-screen for TAAR1 agonist project (AID 651952);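 further: 0% = EC80 ATP with DMSO and 100% = DMSO wells without ATP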
Conditions: CHO-Ga16 ATP-induced calcium, Fluo-8 fluorescence; at 3 µM
Screen size: about 2,400 compounds; about 940 (39%) were called active.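 How the source made its calls: active means inhibition above the plate's mean compound inhibition plus 3 SD, computed per plate (cut at about 22% in these data); inactive means the rest.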 A selection follows.
In this exercise, the only acceptable responses are 1 (yes) for active, 0 (no) for inactive

Solved cases below.
COc1ccc(OC)c(C(c2nnnn2C(C)(C)C)N2CCc3ccccc3C2)c1 (centres undefined) = 0 (no)
CC(C)(C)CC(=O)Nc1nc(C(N)Cc2ccc(C(F)(F)F)cc2)cs1 (centres undefined) = 1 (yes)
Cc1ccccc1-c1nc(CS(=O)(=O)CC(=O)N2CCc3ccccc3C2)c(C)o1 = 0 (no)
O=C(NCCc1ccccc1)Oc1ccc(Cl)cc1 = 0 (no)

Qu. Hey, what did the test say about COC(=O)c1[nH]c2cccc(C)c2c1NC(=O)CN1CCCc2ccccc21 ?
Ans. 1 (yes)

Qu. Hey, what did the test say about CCOc1ccc(Br)cc1CSC(=N)N ?
Ans. 1 (yes)

Qu. Hey, what did the test say about COc1ccc(C(=O)NC(=S)NNC(=O)c2c(-c3ccccc3)noc2C)cc1 ?
Ans. 0 (no)

Qu. Hey, what did the test say about Cc1ccc(O)c(NC(=S)NC(=O)COc2ccc(Br)cc2)c1 ?
Ans. 1 (yes)

Qu. Hey, what did the test say about CCN(CC)c1ccc2oc(=O)c(C)nc2c1 ?
Ans. 1 (yes)

Qu. Hey, what did the test say about O=C(Nc1ccc(F)cc1)Nc1nnc([C@H]2C[C@H](O)[C@@H](CO)O2)s1 ?
Ans. 0 (no)

Qu. Hey, what did the test say about CCOC(=O)Cc1csc(NC(=O)Nc2ccccc2)n1 ?
Ans. 1 (yes)

Qu. Hey, what did the test say about CSc1nc(N)c(C#N)c(-c2ccccc2Cl)c1C#N ?
Ans. 1 (yes)

Qu. Hey, what did the test say about COc1ccc(CC(N)c2csc(NC(=O)Cc3ccccc3)n2)cc1 (centres undefined) ?
Ans. 0 (no)

Qu. Hey, what did the test say about O=C(Cc1ccc(Cl)cc1)NC(=S)Nc1ccccc1O ?
Ans. 1 (yes)

Qu. Hey, what did the test say about NC(Cc1ccccc1)c1csc(Nc2cc(Oc3ccccc3)ncn2)n1 (centres undefined) ?
Ans. 1 (yes)

Qu. Hey, what did the test say about COc1ccc(C(=O)NNC(=S)NC(=O)c2ccccc2)cc1 ?
Ans. 1 (yes)

Qu. Hey, what did the test say about CCc1ccc(-c2nn(-c3ccccc3)cc2CSC(=N)N)cc1 ?
Ans. 0 (no)

Qu. Hey, what did the test say about Cc1onc(-c2ccccc2)c1C(=O)NNC(=S)NC(=O)c1ccc(F)cc1 ?
Ans. 1 (yes)

###

Assay: reduced calcium signal in Ga16 cells – fluorescence, CHO-Ga16 cells, counter-screen for TAAR1 agonist project (AID 651952);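 further: 0% = EC80 ATP with DMSO and 100% = DMSO wells without ATP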
Conditions: CHO-Ga16 ATP-induced calcium, Fluo-8 fluorescence; at 3 µM
About 940 (39%) of roughly 2,400 compounds were called active.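 How the source made its calls: active means inhibition above the plate's mean compound inhibition plus 3 SD, computed per plate (cut at about 22% in these data); inactive means the rest.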 A selection follows.
In this exercise, the only acceptable responses are 1 (yes) (active), 0 (no) (inactive)

Solved cases below.
Cc1ccc(Cl)cc1N1CCN(C(=O)c2cccc3c(=O)c(C)c(-c4ccccc4)oc23)CC1 = 1 (yes)
Cc1c(CNCCc2ccccc2)c(C(=O)O)c(C)n1-c1ccccc1 = 0 (no)

Qu. Hey, what did the test say about CCc1ccccc1S(=O)(=O)Cc1ccc(C(=O)NCCc2ccccc2)o1 ?
Ans. 0 (no)

Qu. Hey, what did the test say about COc1ccc(NC(=O)C(=O)NCC(c2ccco2)N2CCc3ccccc3C2)cc1 (configuration not stated) ?
Ans. 0 (no)

Qu. Hey, what did the test say about CCCCC(=O)NNC(=S)NC(=O)C(c1ccccc1)c1ccccc1 ?
Ans. 1 (yes)

Qu. Hey, what did the test say about NC(c1ccccc1)c1csc(NC(=O)Nc2cccc(C(F)(F)F)c2)n1 (configuration not stated) ?
Ans. 1 (yes)

Qu. Hey, what did the test say about Cn1c(=O)c(=O)n(C)c2cc(S(=O)(=O)NCCc3ccccc3)ccc21 ?
Ans. 0 (no)

Qu. Hey, what did the test say about O=C(O)C1CC=CCC1C(=O)NCCc1ccccc1 (configuration not stated) ?
Ans. 0 (no)

Qu. Hey, what did the test say about c1ccc(Nc2nc(N3CCOCC3)c3ccccc3n2)cc1 ?
Ans. 1 (yes)

Qu. Hey, what did the test say about CCCCCc1c(-c2cccc(Br)c2)ncn1CCc1ccccc1OC ?
Ans. 1 (yes)

Qu. Hey, what did the test say about COc1ccc(C(=O)CN2C(=O)NC(C)(c3ccc(C)cc3)C2=O)cc1OC (configuration not stated) ?
Ans. 0 (no)

Qu. Hey, what did the test say about O=C(NNC(=S)NC(=O)c1cn(-c2ccccc2)nc1-c1ccccc1)c1ccncc1 ?
Ans. 1 (yes)
